Values were extracted from patent US20130072404A1.

reported.property: pIC50
Please treat pIC50 as minus the base-10 logarithm of the molar concentration.

# return pIC50 of NC(=O)c1cc[n+](CC2=C(C(=O)[O-])N3C(=O)[C@@H](NC(=O)[C@@H](c4ccccc4)S(=O)(=O)[O-])[C@H]3SC2)cc1.[Na+] [sodium cefsulodine] (system: protein tyrosine phosphatase 1B (PTP1B) (Homo sapiens))
# Sequence (P18031 whole entry): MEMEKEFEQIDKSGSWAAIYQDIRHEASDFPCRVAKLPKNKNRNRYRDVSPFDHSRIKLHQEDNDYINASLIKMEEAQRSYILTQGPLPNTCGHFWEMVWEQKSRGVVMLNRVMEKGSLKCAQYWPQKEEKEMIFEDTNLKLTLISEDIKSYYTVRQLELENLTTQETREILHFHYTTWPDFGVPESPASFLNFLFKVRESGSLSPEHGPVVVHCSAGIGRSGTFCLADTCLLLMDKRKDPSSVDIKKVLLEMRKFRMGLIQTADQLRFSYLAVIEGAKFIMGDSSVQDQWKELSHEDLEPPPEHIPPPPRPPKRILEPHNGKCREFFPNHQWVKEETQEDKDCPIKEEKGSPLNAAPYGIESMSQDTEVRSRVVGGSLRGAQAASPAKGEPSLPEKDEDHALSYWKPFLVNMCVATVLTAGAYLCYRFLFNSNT
4.48

====

study.system: PTP1B (Homo sapiens)
Construct: purchased EMD Biosciences, Inc
Sequence (P18031 whole entry): as above
assay.protocol: Microplate dose-response assay, PTP1B
Format: biochemical

compound	confirmation of activity in microplate
NC(=O)c1cc[n+](CC2=C(C(=O)[O-])N3C(=O)[C@@H](NC(=O)[C@@H](c4ccccc4)S(=O)(=O)[O-])[C@H]3SC2)cc1.[Na+] [sodium cefsulodine]	confirmed in microplate
Cc1ccc(C(=O)Nc2ccc(S(=O)(=O)[O-])c3cc(S(=O)(=O)[O-])cc(S(=O)(=O)[O-])c23)cc1NC(=O)c1cccc(NC(=O)Nc2cccc(C(=O)Nc3cc(C(=O)Nc4ccc(S(=O)(=O)[O-])c5cc(S(=O)(=O)[O-])cc(S(=O)(=O)[O-])c45)ccc3C)c2)c1.[Na+].[Na+].[Na+].[Na+].[Na+].[Na+] [sodium suramin]	confirmed in microplate
O=C(O)c1cc(-c2ccc(F)cc2F)ccc1O	confirmed in microplate
